system: S. aureus RN4220; assay: growth inhibition call (relative growth <= 0.2); conditions: 50 µM
Among all 39,000 compounds or so, about 500 (1.3%) were called active. The list comes from a sample in which actives are over-represented; it also holds close analogues and randomly drawn compounds.
Readout Name: growth inhibition call

See these solved cases before continuing.
- Substance Smiles: "CC(C)[C@@H](N)c1nc2c([nH]1)CCCC2"
  growth inhibition call: "inactive"
- Substance Smiles: "CC(C)(C)C(=O)C[n+]1ccc(C(N)=O)cc1"
  growth inhibition call: "inactive"
- Substance Smiles: "CN1C(=O)c2cc(NC(=O)C3CCC3)ccc2OC[C@H]2O[C@H](CC(=O)NCCc3ccncc3)CC[C@H]21"
  growth inhibition call: "inactive"
- Substance Smiles: "Cc1ccc(S(=O)(=O)N(C)C[C@@H]2Oc3ncc(C#CCC(C)C)cc3C(=O)N([C@@H](C)CO)C[C@H]2C)cc1"
  growth inhibition call: "inactive"
- Substance Smiles: "O=c1c2ccccc2oc2ccccc12"
  growth inhibition call: "inactive"
- Substance Smiles: "C[C@@H]1CN([C@@H](C)CO)C(=O)c2cccc(NC(=O)C3CC3)c2O[C@H]1CN(C)Cc1ccc(C(=O)O)cc1"
  growth inhibition call: "inactive"
- Substance Smiles: "C[C@H](CO)N1C[C@H](C)[C@@H](CN(C)Cc2ccc3c(c2)OCO3)Oc2c(NC(=O)c3ccncc3)cccc2C1=O"
  growth inhibition call: "inactive"
- Substance Smiles: "CCS(=O)(=O)Nc1ccc2c(c1)C(=O)N(C)[C@H]1CC[C@@H](CC(=O)N3CCN(C)CC3)O[C@@H]1CO2"
  growth inhibition call: "inactive"

### Prompt Quick one: growth inhibition call for C[C@@H]1CCCCO[C@@H](CN(C)C(=O)Nc2ccc3c(c2)OCO3)[C@@H](C)CN([C@@H](C)CO)C(=O)c2cc(NC(=O)Nc3ccc(F)cc3)ccc2O1 ?
### Response inactive

### Prompt Quick one: growth inhibition call for C=CC[C@H](CC(=O)NCCO)C(=O)N[C@H](COC(=O)[C@@H](CC=C)CC(=O)OC(C)(C)C)Cc1ccccc1 ?
### Response inactive

### Prompt Quick one: growth inhibition call for CN1C(=O)c2cc(NC(=O)Nc3ccccc3F)ccc2OC[C@@H]2O[C@@H](CC(=O)NCc3ccc(-c4ccccc4)cc3)CC[C@H]21 ?
### Response inactive

### Prompt Quick one: growth inhibition call for CC[C@H]1OC(=O)[C@H](C)[C@@H](O[C@H]2C[C@@](C)(OC)[C@@H](O)[C@H](C)O2)[C@H](C)[C@@H](O[C@@H]2O[C@H](C)C[C@H](N(C)C)[C@H]2O)[C@](C)(O)C[C@@H](C)CN(C)[C@H](C)[C@@H](O)[C@]1(C)O ?
### Response inactive

### Prompt Quick one: growth inhibition call for C[C@H]1CCCCO[C@H](CN(C)S(=O)(=O)c2ccc(F)cc2)[C@@H](C)CN([C@@H](C)CO)C(=O)c2cc(NC(=O)Nc3cccc4ccccc34)ccc2O1 ?
### Response inactive

### Prompt Quick one: growth inhibition call for Cc1ccc(S(=O)(=O)N(C)C[C@H]2Oc3ccc(NS(=O)(=O)c4ccccc4)cc3C(=O)N([C@@H](C)CO)C[C@@H]2C)cc1 ?
### Response inactive

### Prompt Quick one: growth inhibition call for COc1ccc(NC(=O)Nc2ccc3c(c2)C(=O)N([C@H](C)CO)C[C@H](C)[C@@H](CN(C)C(=O)Nc2ccccc2)OCCCC[C@@H](C)O3)cc1 ?
### Response inactive
